Tested on: NCI-H226 lung
test_name: NCI-60 one-dose screen, 48 h (100 = growth as untreated, 0 = no growth, -100 = all killed)
details: 10 µM unless noted
Compounds without any hit were thinned out: in the full panel of roughly 83,000, 20% have a hit.
reported_property: growth (%)
Enter your answer as a number in %; do not include the unit.

Returns the measured growth for the input compound. Input: NCCCOc1cc2ccccc2cc1C(=O)Nc1ccc(Cl)cc1OC(=O)c1cc2ccccc2cc1OCCCN
-57.6

---

System: SK-MEL-5 melanoma
test_name: NCI-60 one-dose screen, 48 h
details: 10 µM unless noted
The panel holds about 83,000 compounds, 20% with a hit somewhere; the sample as a whole holds those more often. Activity calls are given as the source filed them. How the source made its calls: active means growth percent below 10; inactive means the rest.
Entry note: the call must match one of active, inactive

Observe how each entry below is paired with its result.
> print(dat)
                                   compound       cat
1  CCC(CCCN1C(=O)c2ccccc2C1=O)Nc1cc(OC)cc2c(C)ccnc12 (centres undefined)  inactive
2  O=S(=O)(Cc1cccc2c(CS(=O)(=O)c3ccc(Cl)cc3)cccc12)c1ccc(Cl)cc1  inactive
3  Cc1nc(NC(=S)Nc2ccc(F)cc2)sc1C(=O)NNC(=S)Nc1ccc(F)cc1  inactive

Field: next compound
Which outcome did this test record for the compound COc1ccc(Cn2cc3c(c2-c2ccc(O)cc2)CCc2cnoc2-3)cc1 ?
inactive

---

System: ACHN renal
test_name: NCI-60 one-dose screen, 48 h (100 = growth as untreated, 0 = no growth, -100 = all killed)
details: 10 µM unless noted
This is part of a sample that, as a whole, favours compounds with a hit. Of some 83,000 tested, about 20% had one in any assay. Activity calls are given as the source filed them. The calls were made as follows: active = growth percent below 10; inactive = the rest.
Measured growth of individual entries

> print(dat)
                                   compound            result
1  c1ccc2[nH]c(-c3ccc(OCCCCCOc4ccc(-c5nc6ccccc6[nH]5)cc4)cc3)nc2c1  35.5% (inactive)

Request body: readout growth, system ACHN renal, query O=C(Nc1ccc(Cl)c(Cl)c1)O/N=C\c1c(Cl)ccc([N+](=O)[O-])c1Cl . Return the value.
-59.5% (active)

Request body: readout growth, system ACHN renal, query O=C(Nc1ccc(-n2cc(-c3ccncc3)c(-c3ccc(Cl)c(O)c3)n2)cc1)Nc1ccc(Cl)c(C(F)(F)F)c1 . Return the value.
2.3% (active)

Request body: readout growth, system ACHN renal, query CCC(C)(C)c1ccc(OCCCCCCN2CCN(c3ccc(C)c(Cl)c3)CC2)cc1 . Return the value.
91.3% (inactive)

Request body: readout growth, system ACHN renal, query O=C(O)c1occ(Cl)c1Cl . Return the value.
109% (inactive)

Request body: readout growth, system ACHN renal, query CSc1nc(N)n2nccc2n1 . Return the value.
112% (inactive)

Request body: readout growth, system ACHN renal, query O=C1C(Cl)=C(Nc2ccc(Nc3ccccc3)c(NC3=C(Cl)C(=O)c4ccccc4C3=O)c2)C(=O)c2ccccc21 . Return the value.
34.4% (inactive)

Request body: readout growth, system ACHN renal, query O=C1/C(=N\c2cc(=O)[nH]n2S(=O)(=O)c2ccccc2)Nc2ccccc21 . Return the value.
94.7% (inactive)

Request body: readout growth, system ACHN renal, query CCOc1ccccc1/C=N\N=C(N/N=C/c1ccccc1OCC)N/N=C/c1ccccc1OCC . Return the value.
9.67% (active)

Request body: readout growth, system ACHN renal, query CCCCN(CCCC)CC(O)CN(CC)CC (stereo not given) . Return the value.
102% (inactive)
